- ASSAYED TARGET: T1, Dpo4 (SsoDpo4, Y-family DNA polymerase) (Sulfolobus solfataricus, UniProt Q97W02 1-352)
- T1 sequence: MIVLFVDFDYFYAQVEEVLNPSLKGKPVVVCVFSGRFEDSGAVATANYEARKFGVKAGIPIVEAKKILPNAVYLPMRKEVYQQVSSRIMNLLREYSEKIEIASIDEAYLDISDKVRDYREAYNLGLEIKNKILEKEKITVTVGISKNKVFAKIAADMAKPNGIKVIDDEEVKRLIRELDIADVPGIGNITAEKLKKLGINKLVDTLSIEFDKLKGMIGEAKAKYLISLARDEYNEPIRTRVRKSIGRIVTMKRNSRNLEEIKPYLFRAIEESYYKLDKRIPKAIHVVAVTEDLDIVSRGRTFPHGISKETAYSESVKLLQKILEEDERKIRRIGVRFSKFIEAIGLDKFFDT
- MEASUREMENT DESCRIPTION: fluorescence anisotropy
RECORDED METRIC: Kd (nM)
Report the figure in nM without appending any unit label.

Note down Kd recorded for TTTTTTTTTTCCCGGGCCGGCGTTTCGCCGGCCCGGG (structured_DNA) [37-nt hairpin primer-template, 5'-Cy3]
133
